Each recorded value in this set is attributed to patent US8580556B2.

Reported relative β-galactosidase activity, inducer Ci values follow for various molecules
Tested on: tetA promoter (PtetA)-lacZ reporter in E. coli KM3
Type: cell-based
Details: Table 4; chlorimuron 20 μg/ml (20 ppm); 48 hrs at 30° C.
Note: the reply should be a number with no unit written.

// solved cases for relative β-galactosidase activity, inducer Ci follow
* L1-20: library L1 hit, sulfonylurea-responsive TetR(B) variant, SEQ ID NO: 6 (protein, Sulfonylurea responsive repressor L1-20) MGSRLDKSKVINSALELLNEVGIEGLTTRKLAQKLGVEQPTLYWHVKNKRALLDALAIEMMDRHQTHFCPLEGESWQDFLRNNAKSMRCALLSHRDGAKVFLGTAWTEKQYETVENLLAFLCQQGFSLENALYALNAVATFTLGCVLWDQEKQVAKEERETPTTDSMPPLLRQAHELGDHQGAEPAFLFGLELIICGLEKQLKSESGS | 13.5
* L1-44: library L1 hit, sulfonylurea-responsive TetR(B) variant, SEQ ID NO: 13 (protein, Sulfonylurea responsive repressor L1-44) MGSRLDKSKVINSALELLNEVGIEGLTTRKLAQKLGVEQPTLYWHVKNKRALLDALAIEMLDRHATHFCPLEGESWQDFLRNNAKSYRCALLSHRDGAKVYLGTAVTEKQYETAENQLAFLCQQGFSLENALYAVKAVAGFTLGCVLWDQESQVAKEERETPTTASMPPLLRQAVELADHQGAEPAFLFGLELIICGLEKQLKCESGS | 6.7
* L1-38: library L1 hit, sulfonylurea-responsive TetR(B) variant (protein, Sulfonylurea responsive repressor L1-38) MGSRLDKSKVINSALELLNEVGIEGLTTRKLAQKLGVEQPTLYWHVKNKRALLDALAIEMADRHHTHFCPLEGESWQDFLRNNAKSMRCALLSHRDGAKVWLGTAWTEKQYETTENMLAFLCQQGFSLENALYAWRAVTMFTLGCVLRDQEWQVAKEERETPTTDSMPPLLRQALELGDHQGAEPAFLFGLELIICGLEKQLKCESGS | 15.3

--- query ---
For L1-29: library L1 hit, sulfonylurea-responsive TetR(B) variant, SEQ ID NO: 10 (protein, Sulfonylurea responsive repressor L1-29) MGSRLDKSKVINSALELLNEVGIEGLTTRKLAQKLGVEQPTLYWHVKNKRALLDALAIEMMDRHQTHFCPLEGESWQDFLRNTAKSMRCALLSHRDGAKVWLGTRWTEKQYETPENMLAFLCQQGFSLENALYAWSAVCNFTLGCVLSDQERQVAKEERETPTTDSMPPLLRQAWELSDHQGAEPAFLFGLELIICGLEKQLKCESGS , what is its reported relative β-galactosidase activity, inducer Ci?
20.9
